The binders listed here are annotated with their glycan array binding signal (z-score).
# STUDY SYSTEM: Kdn(a2-3)Gal(b1-4)Glc
# PROTOCOL DESCRIPTION: glycan array binding signal (z-score within array); higher = stronger binding
# MEASUREMENT PARAMETERS: glycan notation: IUPAC condensed, linker removed
Shown is part of a subset that was picked to be rich in the strongest signals.
Give a plain numeric answer without units written out.

Worked set:
>>> result_number("RS2L (Ralstonia solanacearum), B5RXL5_RALSO (protein) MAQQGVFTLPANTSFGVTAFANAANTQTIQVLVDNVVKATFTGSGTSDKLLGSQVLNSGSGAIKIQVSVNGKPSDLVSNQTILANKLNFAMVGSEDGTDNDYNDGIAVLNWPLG")
-0.242
>>> result_number("PfulAvr4 (Pseudocercospora fuligena) (protein) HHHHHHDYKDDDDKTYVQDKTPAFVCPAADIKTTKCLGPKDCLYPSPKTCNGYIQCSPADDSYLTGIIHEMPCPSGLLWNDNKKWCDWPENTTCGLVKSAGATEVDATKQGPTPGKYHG")
0.189
>>> result_number("Als3-2 (Candida albicans) (protein) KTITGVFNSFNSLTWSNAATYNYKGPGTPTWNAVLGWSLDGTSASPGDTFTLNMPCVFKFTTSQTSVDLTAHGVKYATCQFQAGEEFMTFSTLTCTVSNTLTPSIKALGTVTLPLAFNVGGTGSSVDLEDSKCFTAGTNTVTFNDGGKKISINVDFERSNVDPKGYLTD")
-0.075

Continue with the next binder.
# glycan array binding signal (z-score) lookup, item GH98CBM51-1 (Streptococcus pneumoniae) (protein) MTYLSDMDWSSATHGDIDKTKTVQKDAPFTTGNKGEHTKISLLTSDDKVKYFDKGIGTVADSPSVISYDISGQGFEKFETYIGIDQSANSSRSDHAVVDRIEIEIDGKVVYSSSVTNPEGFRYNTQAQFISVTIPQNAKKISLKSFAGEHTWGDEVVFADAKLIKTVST -0.191
